Kindly supply the reported LC retention time values for the records listed here.
# TEST_DETAILS: RP, Thermo Scientific Acclaim RSLC 120 C18, 100 × 2.1 mm, 2.2 µm, 30 °C, 0.2 mL/min, estimated dead time 1.1 min; A: 90% water + 10% methanol + 0.01% formic acid + 5 mM ammonium formate, pH 3.61; B: methanol + 0.01% formic acid + 5 mM ammonium formate, pH 3.61; gradient (min/%B) 0/1 1/1 2/39 13/99.9 15/99.9 15.1/1 20.1/1
# CONDITION_DETAILS: stereoisomer not certain
Please give a number only; it is taken to be in min.

## Input May I ask what LC retention time has been recorded for CCCCCn1cc(C(=O)Cc2ccc(OC)cc2)c2ccccc21 [JWH-201] ?
## Output 11.6

## Input Data request, read-out LC retention time, for CCCCCCn1c(=O)c2c(ncn2C)n(C)c1=O [Pentifylline]
## Output 9.44

## Input Quick one: LC retention time of O=C(NC(=O)c1c(F)cccc1F)Nc1ccc(OC(F)(F)C(F)OC(F)(F)F)c(Cl)c1 (centres undefined) [Novaluron] ?
## Output 11.9

## Input What does the data say about its LC retention time? Entry: CCc1ccc(C(=O)NN(C(=O)c2cc(C)cc(C)c2)C(C)(C)C)cc1 [Tebufenozide]
## Output 10.4
